Form: system (Urease (Canavalia ensiformis)), quantity (pKi), values below.
Kindly note that pKi refers to -log10 of the concentration in mol/L and answer with the value alone.

GET /values?item= NS(=O)(=O)c1ccc(NC(=S)NC(=O)Cc2ccccc2)cc1 &system= Urease (Canavalia ensiformis) returns pKi: 5.80

Next:
Field pKi (system: Urease (Canavalia ensiformis)) for entry NS(=O)(=O)c1ccc(NC(=S)NC(=O)c2ccc([N+](=O)[O-])cc2)cc1 = 5.12

Test item Cc1ccc(C(=O)NC(=S)Nc2ccc(S(N)(=O)=O)cc2)cc1 ; Urease (Canavalia ensiformis); reported pKi was 5.36

Recorded pKi for Cc1cccc(C(=O)NC(=S)Nc2ccc(S(N)(=O)=O)cc2)c1 on Urease (Canavalia ensiformis) was 6.05
